Experiment: Example I: plasma letrozole concentration (LC/MS/MS) and non-compartmental pharmacokinetics after single iv dose
Type: in vivo, cattle
Settings: female, bovine, plasma, 500 ug/kg; 500 μg/kg single iv, n=9; read-out: Area under the curve (AUClast)
VALUE KIND: AUC(0-t) (ng·h/mL)
Note: unit ng·h/mL is implicit; provide only the numeric part.

Query block: Could you share which AUC(0-t) value was measured for `N#Cc1ccc(C(c2ccc(C#N)cc2)n2cncn2)cc1` ?
Result block: 28100

* * *

Assay: Example I: plasma letrozole concentration (LC/MS/MS) and non-compartmental pharmacokinetics after single iv dose
Format: in vivo, cattle
Settings: female, bovine, plasma, 250 ug/kg; 250 μg/kg single iv, n=9; read-out: Systemic clearance (Cls) (converted)
VALUE KIND: clearance (mL/min/kg)
Answer with a number only, understood to be in mL/min/kg.

Query block: What value of clearance has been recorded for this entry: N#Cc1ccc(C(c2ccc(C#N)cc2)n2cncn2)cc1 [Letrozole, letrozole]
Result block: 0.258
